In this section, each of the compounds is paired with its reported LD50 at 24 h.
- Assay Remarks: in vivo
- Condition Summary: mouse, ip
Structures can show the parent of a compound that is named as a salt.

{"columns": ["Compound", "Unit Annotation", "LD50 at 24 h"],
 "data": [
  ["CC(C)(C)NCC(O)COc1ccccc1-c1ccc[nH]1.O=C(O)/C=C/C(=O)O (centres unmarked) [Example II]", "mg/kg", 165],
  ["CC(C)NCC(O)COc1ccccc1-c1ccc[nH]1 (centres unmarked) [Example III, fumarate hemihydrate]", "mg/kg", 97.2]
]}
